# System: Human immunodeficiency virus 2
# protocol_notes: Antiviral effective concentration for Inhibitory activity on HIV-2(ROD) replication in MT-4 cells
# Format: functional, organism-based
# test_conditions: Human immunodeficiency virus 2, MT4
# key: entry, value: log10 of EC50
// stored as log10 of EC50 expressed in nM

Before answering, review these 5 worked examples.
INSERT INTO results (structure, reported_result) VALUES
  ('c1cc(CN2CCCNCc3cncc(n3)CNCCC2)ccc1CN1CCCNCc2cncc(n2)CNCCC1', 4.32),
  ('c1cc2nc(c1)CCNCCN(Cc1ccc(CN3CCNCCc4cccc(n4)CCNCC3)cc1)CCNCC2', 0.20),
  ('c1cc2nc(c1)CNCCN(Cc1ccc(CN3CCNCc4cccc(n4)CNCC3)cc1)CCNC2', 2.10),
  ('COc1cc2nc(c1)CNCCCN(Cc1ccc(CN3CCCNCc4cc(OC)cc(n4)CNCCC3)cc1)CCCNC2', 3.93),
  ('Oc1cc2nc(c1)CNCCCN(Cc1ccc(CN3CCCNCc4cc(O)cc(n4)CNCCC3)cc1)CCCNC2', 5.30);

Recorded result, c1cc2nc(c1)CCNCCCN(Cc1ccc(CN3CCCNCCc4cccc(n4)CCNCCC3)cc1)CCCNCC2 , log10 of EC50: 3.08

What the record says about Clc1cc2nc(c1)CNCCCN(Cc1ccc(CN3CCCNCc4cc(Cl)cc(n4)CNCCC3)cc1)CCCNC2 : log10 of EC50 is 2.88

// field: log10 of EC50; key: c1cc(CN2CCCNCCNCCNCCC2)ccc1CN1CCCNCCNCCNCCC1 ; value = 1.63

# log10 of EC50 of c1cc(CN2CCNCc3cccc(n3)CNCC2)cc(CN2CCNCc3cccc(n3)CNCC2)c1 = 0.40
